Test: In vivo biodistribution and regional brain uptake in rats
Settings: male SD rats, i.v., 30 min p.i. (control)
This section presents compounds with their documented Biodistribution, liver values.
The response must be a number in %ID/gram with no trailing unit.

[[record]]
compound = "Cn1cc(-c2ccncc2)c(-c2ccc(OCc3ccc4cc(O[11CH3])ccc4n3)cc2)n1 [[^11C]3]"
reported = 3.172


QUERY: # input compound: Cn1ncc(-c2ccncc2)c1-c1ccc(OCc2cc(O[11CH3])c3ccccc3n2)cc1 [[^11C]4] ; wanted: its Biodistribution, liver
RESULT: 4.430

QUERY: What do you get for Cn1cc(-c2ccncc2)c(-c2ccc(OCc3cc(O[11CH3])c4ccccc4n3)cc2)n1 [[^11C]2] ?
RESULT: 10.085

QUERY: What do you get for Cn1cc(-c2ccncc2)c(-c2ccc(OCc3nc4ccccc4cc3O[11CH3])cc2)n1 [[^11C]1] ?
RESULT: 7.345

---

This section presents molecules with their documented Biodistribution, striatum values.
Assay: In vivo biodistribution and regional brain uptake in rats
Conditions: male SD rats, i.v., 5 min p.i.

Check out these entries, answers already filled in.
[[record]]
molecule = "Cn1cc(-c2ccncc2)c(-c2ccc(OCc3cc(O[11CH3])c4ccccc4n3)cc2)n1 [[^11C]2]"
reported = "0.352 ± 0.052 ^a %ID/gram"

[[record]]
molecule = "Cn1cc(-c2ccncc2)c(-c2ccc(OCc3nc4ccccc4cc3O[11CH3])cc2)n1 [[^11C]1]"
reported = "0.488 ± 0.101 ^a %ID/gram"

[[record]]
molecule = "Cn1ncc(-c2ccncc2)c1-c1ccc(OCc2cc(O[11CH3])c3ccccc3n2)cc1 [[^11C]4]"
reported = "0.151 ± 0.033 ^a %ID/gram"


QUERY: # input molecule: Cn1cc(-c2ccncc2)c(-c2ccc(OCc3ccc4cc(O[11CH3])ccc4n3)cc2)n1 [[^11C]3] ; wanted: its Biodistribution, striatum
RESULT: 0.293 ± 0.075 ^b %ID/gram

---

Test: In vivo biodistribution and regional brain uptake in rats
Conditions: male SD rats, i.v., 30 min p.i. (control)
measure: Biodistribution, blood (%ID/gram)
The response must be a number in %ID/gram with no trailing unit.

Check out these entries, answers already filled in.
[[record]]
compound = "Cn1cc(-c2ccncc2)c(-c2ccc(OCc3nc4ccccc4cc3O[11CH3])cc2)n1 [[^11C]1]"
reported = 0.321

[[record]]
compound = "Cn1cc(-c2ccncc2)c(-c2ccc(OCc3cc(O[11CH3])c4ccccc4n3)cc2)n1 [[^11C]2]"
reported = 0.192

[[record]]
compound = "Cn1cc(-c2ccncc2)c(-c2ccc(OCc3ccc4cc(O[11CH3])ccc4n3)cc2)n1 [[^11C]3]"
reported = 0.275


// switching to the query compound
QUERY: # input compound: Cn1ncc(-c2ccncc2)c1-c1ccc(OCc2cc(O[11CH3])c3ccccc3n2)cc1 [[^11C]4] ; wanted: its Biodistribution, blood
RESULT: 0.067

---

Assay: In vivo biodistribution and regional brain uptake in rats
Details: male SD rats, i.v., 30 min p.i. (control)
measure: Biodistribution, muscle (%ID/gram)
The response must be a number in %ID/gram with no trailing unit.

Check out these entries, answers already filled in.
[[record]]
compound = "Cn1ncc(-c2ccncc2)c1-c1ccc(OCc2cc(O[11CH3])c3ccccc3n2)cc1 [[^11C]4]"
measure = "Biodistribution, muscle"
units_symbol = "%ID/gram"
reported = 0.093

[[record]]
compound = "Cn1cc(-c2ccncc2)c(-c2ccc(OCc3nc4ccccc4cc3O[11CH3])cc2)n1 [[^11C]1]"
measure = "Biodistribution, muscle"
units_symbol = "%ID/gram"
reported = 0.244


QUERY: # input compound: Cn1cc(-c2ccncc2)c(-c2ccc(OCc3ccc4cc(O[11CH3])ccc4n3)cc2)n1 [[^11C]3] ; wanted: its Biodistribution, muscle
RESULT: 0.175

QUERY: What do you get for Cn1cc(-c2ccncc2)c(-c2ccc(OCc3cc(O[11CH3])c4ccccc4n3)cc2)n1 [[^11C]2] ?
RESULT: 0.133
